These data points were gathered from patent US20250115603A1.

assay: Solubility measurement at 25° C. (HPLC of saturated solution); format: physicochemical; details: 2-Methoxyethanol, 25 °C, organic solvent or mixture; by visual assessment
Where a name gives a salt, the structure may show the parent alone.
measurement-name: solubility

[Q] Which solubility is listed for Cc1nc2c(F)c(-c3cccc(Cl)c3Cl)c(CCC#N)cc2c2c1cc(C1CC3C[C@H]3N1C(=O)C1CC1)n2C1[C@H]2CN[C@@H]1C2 (atropisomer, axis not shown; (Ra)) [Compound 1 HCl, monohydrochloride dihydrate] ?
[A] > 50 mg/mL
